- Target desc: hENPP2 (UniProtKB/SwissProt Sequence ref Q13822) (Homo sapiens (Human), UniProt Q13822)
- Assay comment: LPC hENPP2 assay (choline release, LPC as substrate)
- Assay type: biochemical
Please provide measured IC50 for the entries that follow.

Q: Query (compound): CCc1nc2ccc(N3CCCC4(CNC(=O)O4)C3)nn2c1N(C)c1nc(-c2ccc(F)cc2)c(C#N)s1 (centres unmarked) ; field requested: IC50
Result: 100 to 500 nM

Q: Next compound up: CCc1nc2ccc(N3CCC4(CC(=O)NC4=O)C3)nn2c1N(C)c1nc(-c2ccc(F)cc2)cs1 (centres unmarked)
Result: > 1000 nM

Q: Item: CCc1nc2ccc(N3CCN(CC4CNC(=O)O4)CC3)nn2c1N(C)c1nc(-c2ccc(F)cc2)cs1 (centres unmarked)
Result: 100 to 500 nM

Q: # repeat for `CCc1nc2ccc(N3CCN(CCN4CCCC4=O)CC3)nn2c1N(C)c1nc(-c2ccc(F)cc2)cs1`
Result: 100 to 500 nM

Q: Now consider CCc1nc2ccc(N3CCC(N4CCOCC4)C3)nn2c1N(C)c1nc(-c2ccc(F)cc2)c(CO)s1 (centres unmarked) and answer again.
Result: 500 to 1000 nM

Q: How about `CCc1nc2cnc(C3CCN(CC(=O)N4CC[C@@H](O)C4)CC3)cn2c1N(C)c1nc(-c2ccc(F)cc2)c(C#N)s1` ?
Result: 100 to 500 nM

Q: Moving on to CCc1nc2ccc(N3CCC(O)(CNC(=O)C(C)C)C3)nn2c1N(C)c1nc(-c2ccc(F)cc2)c(C#N)s1 (centres unmarked)
Result: 100 to 500 nM

Q: Now the compound `CCc1nc2ccc(N3CCCN(C(C)=O)CC3)nn2c1N(C)c1nc(-c2ccc(F)cc2)cs1`
Result: > 1000 nM

The reported measurements were obtained from patent US9796719B2.
